Tested on: chloroquine-sensitive Pf3D7 (MRA-102) P. falciparum strain
Assay: SYBR green I-based fluorescence P. falciparum growth inhibition assay, Pf3D7
Format: cell-based
Conditions: Plasmodium falciparum; SYBr Green based assay, 72 h, chloroquine-sensitive strain; read-out: IC50 ± SD Pf3D7
Reported IC50 values follow for various compounds

Some solved cases for reference:
| compound | target-desc | IC50 |
| --- | --- | --- |
| CC(=O)O[C@H]1CC[C@]2(C)[C@H]3CC=C4[C@@H]5CC(C)(C)CC[C@]5(C)CC[C@@]4(C)[C@]3(C)CC[C@H]2C1(C)C [compound 11, β-amyrin acetate] | chloroquine-sensitive Pf3D7 (MRA-102) P. falciparum strain | > 25 µg/mL |
| CCOC(=O)c1cc(O)c(O)c(O)c1 [compound 10, Ethyl gallate] | chloroquine-sensitive Pf3D7 (MRA-102) P. falciparum strain | 1.15 µg/mL |
| CC(=O)OCC(Cc1ccccc1)NC(=O)C(Cc1ccccc1)NC(=O)c1ccccc1 (stereo not shown) [compound 9, Auranthiamide acetate] | chloroquine-sensitive Pf3D7 (MRA-102) P. falciparum strain | > 25 µg/mL |

Next:
Q: Kindly state the measured IC50 obtained for CCCCCC(=O)Cc1cc(OC)cc(O)c1C(=O)Oc1cc(CCCCC)c(C(=O)O)c(OC)c1 with chloroquine-sensitive Pf3D7 (MRA-102) P. falciparum strain.
Ans: > 25 µg/mL

----------
Tested on: chloroquine-sensitive Pf3D7 (MRA-102) P. falciparum strain
Test: SYBR green I-based fluorescence P. falciparum growth inhibition assay, Pf3D7
Assay type: cell-based
Conditions: Plasmodium falciparum; SYBr Green based assay, 72 h, chloroquine-sensitive strain; read-out: IC50 ± SD Pf3D7
# IC50 per entry

Sample answers from the record:
| compound | measured-attribute | result |
| --- | --- | --- |
| COc1cc2c(=O)oc3c(OC)c(O)cc4c(=O)oc(c1OC)c2c34 | IC50 | > 25 µg/mL |
| CC1(C)CC[C@]2(C)CC[C@]3(C)C(=CC[C@@H]4[C@@]5(C)CC[C@H](O)C(C)(C)[C@@H]5CC[C@]43C)[C@@H]2C1 | IC50 | > 25 µg/mL |
| COc1c(O)cc2c(=O)oc3c(OC)c(O)cc4c(=O)oc1c2c34 | IC50 | 1.17 µg/mL |
| CCCCCCCCCCCCCCCCCCCCCCCC(=O)OCC(O)CO (stereo not drawn) [compound 8, Glyceryl-1-tetracosanoate] | IC50 | > 25 µg/mL |
| COc1c(O)cc2c(=O)oc3c(OC)c(OC4OCC(O)C(OC(=O)c5cc(O)c(O)c(O)c5)C4O)cc4c(=O)oc1c2c34 (stereo not drawn) | IC50 | 1.86 µg/mL |

Then this compound:
Q: Requested read-out: IC50. Entry: C/C(=C/CCC(C)C1CCC2(C)C3=CCC4C(C)(C)C(=O)CCC4(C)C3CCC12C)C(=O)O (stereo not drawn)
Ans: > 25 µg/mL

----------
Assay: Resazurin-based in vitro cytotoxicity assay
Assay type: cell-based
Conditions: mouse; Raw cells, 48 h, resazurin; read-out: CC50
Reported values of CC50 at 48 h for individual entries

| compound | CC50 at 48 h |
| --- | --- |
| COc1cc(O)c2c(=O)c3c(C)cc(O)cc3oc2c1 | > 100 µg/mL |

Note: attention shifts to another entry.
Q: Form field: reported CC50 at 48 h of O=C(O)c1ccc(O)c(O)c1 [compound 6, 3,4-dihydroxybenzoic acid]
Ans: > 100 µg/mL
